assay-method-text: NCI Yeast Anticancer Drug Screen. Data for the rad50 strain (AID 155)
condition-description: S. cerevisiae rad50 strain growth inhibition; at 50.0 µM
The panel holds about 79,000 compounds, 15% with a hit somewhere; the sample as a whole holds those more often. Active and inactive are the calls of the source. Cut-off read from the data, not from the text of the source: active = growth inhibition above about 70%; inactive = the rest.
# valid calls are active, inactive; nothing else

Which outcome did this test record for the molecule OCC(O)C(O)C(O)C(O)C(O)[C@@H](O)c1nc2ccccc2[nH]1 (some centres not stated) ?
inactive

Answer briefly: the call reported for Cc1ncc(CO)c(Nc2ccccc2)n1 in this assay.
inactive

What outcome does the record of this test show for Cc1ccc2nc(-c3ccc4nc(-c5ccc(N=Nc6ccc(-c7nc8ccc(-c9nc%10ccc(C)c(S(=O)(=O)O)c%10s9)cc8s7)cc6)cc5)sc4c3)sc2c1S(=O)(=O)O ?
inactive

Outcome logged for O=C(O)CSc1n[nH]c(-c2ccccc2O)n1 in this assay:
inactive

Per the assay record, what outcome was assigned to Nc1cc2c3c(cccc3c1Br)C(=O)OC2=O ?
active

Look up the recorded call for CC(C)/C=C\C(=O)CC(C)C in this test.
inactive

Test call for this molecule, please: CCC(=O)N1CCN(C(=O)CC)CC1
inactive

I'd appreciate the recorded outcome for C[N+](C)(C)c1ncncn1 from this test.
inactive

For C=C1c2ccccc2C=NN1c1ccccc1 , which call appears in the assay record?
inactive

Called result for COc1ccc(N=Nc2ccccc2)cc1
inactive

What is the recorded call for this molecule in the test? C/C(C#CC1=CCCCC1)=N\Nc1ccc([N+](=O)[O-])cc1[N+](=O)[O-]
inactive

Lab log entry: Cc1cccc(C)c1NC=O — outcome as called in the assay?
inactive
